- system.tested: GST-rVWF73-H (GST-VWF73-H) (Homo sapiens, UniProt P04275)
- Sequence (P04275 1596-1668 limits assumed): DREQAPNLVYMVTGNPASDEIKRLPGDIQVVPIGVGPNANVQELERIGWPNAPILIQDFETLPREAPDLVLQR
measured.property: pKd
FYI, pKd means -log10 of a concentration in mol per litre.

Problem: Value wanted: pKd (GST-rVWF73-H (GST-VWF73-H) (Homo sapiens, UniProt P04275)) of entry C=CC1=C(C)/C(=C/c2[nH]c(Cc3[nH]c(/C=C4\NC(=O)C(C)=C4C=C)c(C)c3CCC(=O)O)c(CCC(=O)O)c2C)NC1=O
Solution: 4.24

---

- system.tested: VWF (plasma-derived multimeric VWF) (Homo sapiens)
- Sequence (P04275 764-2813): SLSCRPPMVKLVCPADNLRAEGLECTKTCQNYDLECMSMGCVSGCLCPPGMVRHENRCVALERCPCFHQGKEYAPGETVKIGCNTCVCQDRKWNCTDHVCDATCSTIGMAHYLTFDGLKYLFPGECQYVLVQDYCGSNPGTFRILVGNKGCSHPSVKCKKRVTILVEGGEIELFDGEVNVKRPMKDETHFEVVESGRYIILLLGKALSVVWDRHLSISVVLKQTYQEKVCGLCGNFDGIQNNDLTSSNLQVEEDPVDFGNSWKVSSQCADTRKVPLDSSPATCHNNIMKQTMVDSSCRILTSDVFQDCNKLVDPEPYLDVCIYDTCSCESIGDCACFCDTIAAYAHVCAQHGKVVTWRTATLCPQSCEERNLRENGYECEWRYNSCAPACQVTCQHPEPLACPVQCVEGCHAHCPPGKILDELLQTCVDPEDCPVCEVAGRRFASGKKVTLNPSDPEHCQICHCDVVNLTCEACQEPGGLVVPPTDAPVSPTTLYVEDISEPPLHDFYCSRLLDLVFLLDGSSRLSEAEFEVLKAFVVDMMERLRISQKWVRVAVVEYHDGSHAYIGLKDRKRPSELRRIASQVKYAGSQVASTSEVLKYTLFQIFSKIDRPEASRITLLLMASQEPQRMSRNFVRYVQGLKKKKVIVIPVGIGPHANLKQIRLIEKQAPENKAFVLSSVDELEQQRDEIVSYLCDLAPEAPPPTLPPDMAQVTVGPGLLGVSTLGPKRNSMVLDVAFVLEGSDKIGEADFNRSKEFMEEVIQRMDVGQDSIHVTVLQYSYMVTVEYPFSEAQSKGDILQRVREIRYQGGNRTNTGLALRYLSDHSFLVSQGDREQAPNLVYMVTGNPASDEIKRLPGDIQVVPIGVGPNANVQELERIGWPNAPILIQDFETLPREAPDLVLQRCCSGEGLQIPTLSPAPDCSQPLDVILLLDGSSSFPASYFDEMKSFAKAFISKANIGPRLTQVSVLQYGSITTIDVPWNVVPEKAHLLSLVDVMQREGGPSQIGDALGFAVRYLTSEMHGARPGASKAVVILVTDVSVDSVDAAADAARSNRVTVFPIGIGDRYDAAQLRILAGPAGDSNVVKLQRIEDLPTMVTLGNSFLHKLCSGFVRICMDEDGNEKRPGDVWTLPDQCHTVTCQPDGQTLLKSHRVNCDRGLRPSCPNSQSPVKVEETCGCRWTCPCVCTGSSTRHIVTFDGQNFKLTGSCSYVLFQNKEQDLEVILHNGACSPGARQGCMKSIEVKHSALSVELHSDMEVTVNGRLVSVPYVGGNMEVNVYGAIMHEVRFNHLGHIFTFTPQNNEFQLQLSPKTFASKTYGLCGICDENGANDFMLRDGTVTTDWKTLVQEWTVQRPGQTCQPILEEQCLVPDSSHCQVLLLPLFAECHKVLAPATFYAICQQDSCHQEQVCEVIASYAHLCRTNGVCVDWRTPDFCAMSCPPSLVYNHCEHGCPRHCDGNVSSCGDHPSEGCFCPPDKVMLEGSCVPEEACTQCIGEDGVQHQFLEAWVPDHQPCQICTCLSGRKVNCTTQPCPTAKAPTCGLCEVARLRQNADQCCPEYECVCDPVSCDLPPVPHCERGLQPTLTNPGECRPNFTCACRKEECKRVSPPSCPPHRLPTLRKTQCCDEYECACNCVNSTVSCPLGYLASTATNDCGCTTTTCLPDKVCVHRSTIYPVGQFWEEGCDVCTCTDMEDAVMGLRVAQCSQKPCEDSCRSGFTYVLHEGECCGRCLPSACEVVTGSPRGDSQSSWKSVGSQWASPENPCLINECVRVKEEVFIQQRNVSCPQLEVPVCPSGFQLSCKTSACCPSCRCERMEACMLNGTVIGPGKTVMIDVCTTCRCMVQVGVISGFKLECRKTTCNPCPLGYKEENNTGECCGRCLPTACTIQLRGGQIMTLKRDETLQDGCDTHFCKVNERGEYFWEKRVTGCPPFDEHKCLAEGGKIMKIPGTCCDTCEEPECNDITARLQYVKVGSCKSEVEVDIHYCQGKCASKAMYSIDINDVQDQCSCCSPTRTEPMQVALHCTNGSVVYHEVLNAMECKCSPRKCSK
- protocol.text: surface plasmon resonance, protein immobilised on CM5 chip, […] Langmuir fit
- Format: binding
measured.property: Kd (µM)
Use µM as the unit, but write only the number.

Problem: Value lookup for Kd; key = C=CC1=C(C)/C(=C/c2[nH]c(Cc3[nH]c(/C=C4\NC(=O)C(C)=C4C=C)c(C)c3CCC(=O)O)c(CCC(=O)O)c2C)NC1=O
Solution: 29.6
